System: tet operator sequence
TEST_METHOD_NOTES: β-galactosidase activity of a tetracycline-regulated promoter in transformed E. coli with revTetR, in the presence and absence of anhydrotetracycline (atc)
Format: cell-based, Escherichia coli
SETUP_CONDITIONS: RevTetR isolate cultured in the presence of anhydrotetracycline (ATC)
PROPERTY_LABEL: β-Galactosidase Activity, Cultured With ATC

• TetRrevAF1/4: revTetR(BD) N18K D95V G96V A97V (protein, Modified tetracycline repressor, revTetR(BD) N18K D95V G96V A97V) MSRLDKSKVINSALELLKEVGIEGLTTRKLAQKLGVEQPTLYWHVKNKRALLDALAVEILARHHDYSLPAAGESWQSFLRNNAMSFRRALLRYRVVVKVHLGTRPDEKQYDTVETQLRFMTENGFSLRDGLYAISAVSHFTLGAVLEQQEHTAALTDRPAAPDENLPPLLREALQIMDSDDGEQAFLHGLESLIRGFEVQLTALLQIV = 13.459

Now consider the entry below.
Requested read-out: β-Galactosidase Activity, Cultured With ATC. Entry: TetRrevAF6/1: revTetR(BD) A13A E19V V20A D95I G96G (protein, Modified tetracycline repressor, revTetR(BD) A13A E19V V20A D95I G96G) MSRLDKSKVINSALELLNVAGIEGLTTRKLAQKLGVEQPTLYWHVKNKRALLDALAVEILARHHDYSLPAAGESWQSFLRNNAMSFRRALLRYRIGAKVHLGTRPDEKQYDTVETQLRFMTENGFSLRDGLYAISAVSHFTLGAVLEQQEHTAALTDRPAAPDENLPPLLREALQIMDSDDGEQAFLHGLESLIRGFEVQLTALLQIV 3.7966
